- System: HCT-15 colon
- Experimental Details: NCI-60 one-dose screen, 48 h
- Condition Notes: 10 µM unless noted
Compounds without any hit were thinned out: in the full panel of roughly 83,000, 20% have a hit. Calls of active or inactive are those of the source. The calls were made as follows: active = growth percent below 10; inactive = the rest.
Answer with one of the outcomes given here: active, inactive

Recorded test outcome, item `C#C[C@]1(O)CC[C@H]2[C@@H]3CC=C4c5sc(N(C)c6ccccc6)nc5CC[C@]4(C)[C@H]3CC[C@@]21C` inactive

Recorded test outcome, item `Clc1ccc2[nH]cc(-c3nn4cc(-c5ccncc5)nc4s3)c2c1` inactive

Recorded test outcome, item `O=C1Nc2cc(Cl)ccc2/C1=C\c1ccc(OCc2ccccc2)cc1` inactive

Recorded test outcome, item `CC(=O)/C(N=Nc1ccc2oc(=O)ccc2c1)=C(\C)O` inactive

Recorded test outcome, item `Cn1cc(-c2nnc(N)nc2-c2c[nH]c3ccc(Br)cc23)c2cc(Br)ccc21` inactive

Recorded test outcome, item `Nc1ccc(Nc2ncnc3sc4c(c23)CCN(Cc2ccccc2)C4)cc1` inactive

Recorded test outcome, item `CCN1CCN(c2ccc(NC(=O)Nc3ccc4c(ccn4-c4ccnc(C(=O)NC)c4)c3)cc2C(F)(F)F)CC1` active

Recorded test outcome, item CCOP(=O)(OCC)OC[C@]12CCC(C)(C)CC1C1=CC[C@@H]3[C@@]4(C)CCCNC(C)(C)[C@@H]4CC[C@@]3(C)[C@]1(C)CC2 (some centres undefined) inactive

Recorded test outcome, item `N#C/C(=C\c1ccc(-c2ccc(Cl)c(Cl)c2)o1)C(=O)Nc1ncc(Cc2ccc(Cl)cc2)s1` inactive

These entries and their values trace back to PubChem BioAssay (NCI).
